test: Cytotoxicity in MT-4 cells; assay type: cell-based; conditions: human
value_kind: CC50 (µM)
Unit µM implied. Number only.

Data request: Find the recorded CC50 belonging to C#C[C@]1(CO)O[C@@H](n2cnc3c(N)nc(F)nc32)C[C@@H]1O [EFdA, 4′-ethynyl-2-fluoro-2′-deoxyadenosine] and report it.
Data returned: 19.2

Data request: Find the recorded CC50 belonging to CC(C)(C)C(=O)OCOP(=O)(COCCn1cnc2c(N)ncnc21)OCOC(=O)C(C)(C)C [ADV, adefovir dipivoxil] and report it.
Data returned: 5.1

Data request: Find the recorded CC50 belonging to N#C[C@]1(CO)O[C@@H](n2cnc3c(=O)[nH]c(N)nc32)C[C@@H]1O [CdG, 4′-C-cyano-2′-deoxyguanosine] and report it.
Data returned: 2.8

Data request: Find the recorded CC50 belonging to C=C1[C@H](CO)[C@@H](O)C[C@@H]1n1cnc2c(=O)[nH]c(N)nc21 [ETV, entecavir] and report it.
Data returned: 39.1

Data request: Find the recorded CC50 belonging to N#C[C@]1(CO)O[C@@H](n2cnc3c(N)nc(N)nc32)C[C@@H]1O [CAdA, 4′-C-cyano-2-amino-2′-deoxyadenosine] and report it.
Data returned: 3.5

Data request: Find the recorded CC50 belonging to Cc1cn([C@H]2C[C@H](N=[N+]=[N-])[C@@H](CO)O2)c(=O)[nH]c1=O [AZT, 3′-azido-3′-deoxythymidine] and report it.
Data returned: 30.5
